Data origin, for the record: ChEMBL document CHEMBL4513216

Experiment: Toxicity liver stage against HepG2, at 10uM
Format: cell-based
Set-up: test concentration 10 uM, cell line HepG2-A16-CD81EGFP
Details: human, HepG2-A16-CD81EGFP cells; read-out: INHIBITION
Exercise: for every item that follows, state its recorded cytotoxicity at 10 µM.
Return type: number; implicit unit %.

Q: Tell me the measured cytotoxicity at 10 µM of COc1ccc(F)cc1C(C(=O)O)N1CCSCC1 (centres undefined) , please.
Result: -4.2

Q: Which cytotoxicity at 10 µM value belongs to O=C(CS(=O)(=O)Cc1csc(-c2ccc(F)cc2)n1)NCC1CC1 ?
Result: -3.06

Q: Consider the compound shown here: CCC(CC)NC(=O)Cn1nc(C)nc1-c1ccccc1 What is its recorded cytotoxicity at 10 µM?
Result: -7.22

Q: Need cytotoxicity at 10 µM of Cc1ncc(C(=O)N2CC(C(=O)N3CCCCCC3)C2)c(C)n1 , thanks.
Result: 6.39

Q: What value of cytotoxicity at 10 µM has been recorded for this entry: COc1ccccc1-c1ncc(CN2CCCC(CCC(N)=O)C2)s1 (centres undefined)
Result: -6.34

Q: Which cytotoxicity at 10 µM value is on record for Cc1cccc(C(=O)N2CCN(C)CC2)c1NC(=O)c1ccncc1 ?
Result: -10.8

Q: Would you kindly share the measured cytotoxicity at 10 µM for Cn1cc(CNC2CCCOc3c2ccc2ccccc32)cn1 (centres undefined) ?
Result: 5.7

Q: Record request: cytotoxicity at 10 µM value, item O=C(CCn1cncn1)NCC1CCCC1
Result: -43.1

Q: Any idea what cytotoxicity at 10 µM was measured for O=C(C1CCOCC1)N1CCc2ncc(CN3CCOCC3)n2CC1 ?
Result: -79.6

Q: What measured cytotoxicity at 10 µM goes with c1ccc(OCCN2CCC(n3cncn3)CC2)cc1 ?
Result: -20.7

Q: Which cytotoxicity at 10 µM reading was recorded for the compound COC(C(=O)N1CCN(Cc2noc(C)n2)CC1)c1ccccc1 (centres undefined) ?
Result: -1.8

Q: What does the record list as cytotoxicity at 10 µM for C1CCN(c2nc(N3CCOCC3)nc3[nH]nnc23)CC1 ?
Result: 8.95

Q: Recorded cytotoxicity at 10 µM for CN(C)[C@H]1CCCCN(Cc2ccccc2Cn2cccn2)C1 , please?
Result: -130

Q: Returns the measured cytotoxicity at 10 µM for the input compound. Input: Cc1csc(NC(=O)Cn2nc(C)ccc2=O)n1
Result: -5.7

Q: Query (compound): Cc1nc(N(C)C/C=C/c2ccccc2)c2cnn(C)c2n1 ; field requested: cytotoxicity at 10 µM
Result: 0.0448

Q: Record request: cytotoxicity at 10 µM value, item Cc1ccc(-c2ncc(CNc3cnccc3CO)s2)o1
Result: -10.9

Q: Query (compound): Cc1cnn(CCC(=O)N2CCCC(c3nc(C)c(C)s3)C2)c1 (centres undefined) ; field requested: cytotoxicity at 10 µM
Result: -19.2

Q: So what's the measured cytotoxicity at 10 µM for this one? Cc1cc(C(F)(F)F)nc(CNC(=O)C2CCCCCN2C)n1 (centres undefined)
Result: -46

Q: Value lookup for cytotoxicity at 10 µM; key = O=C(O)c1ccccc1CN1CCC2(Cc3ccccc3CNC2=O)C1 (centres undefined)
Result: 8.21

Q: Which cytotoxicity at 10 µM reading was recorded for the compound c1cc(CN2CCCC2)cc(-n2ccnc2-c2ccncc2)c1 ?
Result: -1.37

Q: Reported cytotoxicity at 10 µM for CN1C[C@@H](O)[C@]2(CCN(C(=O)OCc3ccccc3)C2)S1(=O)=O : what is it?
Result: -0.53

Q: Can you share its cytotoxicity at 10 µM? I mean this compound: O=C1CN(C(=O)c2cc3ccc(Br)cc3[nH]2)CCN1
Result: 0.549

Q: # cytotoxicity at 10 µM lookup, item FC(F)(F)c1ccc(-c2c[nH]c([C@@H]3COCCN3)n2)cc1
Result: 1.05

Q: Consider the compound CC(C)c1cc(C(=O)N2CCCN(CCCc3ccccc3)CC2)[nH]n1 and give its measured cytotoxicity at 10 µM.
Result: 0.271

Q: Tell me the measured cytotoxicity at 10 µM of CC(NC(=O)CCOc1cccc(F)c1)c1nnc2n1CCC2 (centres undefined) , please.
Result: -14.1

Q: Entry O=C1CCOCCN1Cc1ccc(C(F)(F)F)c(F)c1 has what cytotoxicity at 10 µM?
Result: -7.63

Q: Using the record for COc1ccc(-c2cc(C3CCOC3)c(C#N)c(N)n2)cn1 (centres undefined) , report its cytotoxicity at 10 µM.
Result: 10.2

Q: Field request: cytotoxicity at 10 µM | item: CC(=O)NC1CCCN(C(=O)NCc2cccnc2N(C)C)C1 (centres undefined)
Result: -1.97

Q: Look up cytotoxicity at 10 µM: CC(=O)Nc1ccsc1C(=O)Nc1cnc2n1CCCC2
Result: -4.58

Q: Quick one: cytotoxicity at 10 µM for CCc1noc(CC)c1CNC(=O)Nc1ccc2[nH]nnc2c1 ?
Result: 6

Q: Sample NC(=O)CN1CCCN(C(=O)c2ccc(SC(F)F)cc2)CC1 — what was its cytotoxicity at 10 µM?
Result: -6.08

Q: # get_value(readout='cytotoxicity at 10 µM', item= O=C(NCCN1CCCCCC1)c1n[nH]c(=O)c2ccccc12 )
Result: -9.86

Q: Return reported cytotoxicity at 10 µM; argument: O=C(NC1CCCCC1)c1ccc(Oc2ccc3nncn3n2)cc1
Result: 2.17

Q: What value of cytotoxicity at 10 µM has been reported for the following compound? CO[C@@H]1CC[C@H]2[C@H]1OCCN2C(=O)c1ccco1
Result: -148

----------
For each record, write down the corresponding cytotoxicity at 10 µM.
Test: Toxicity liver stage against HepG2, at 10uM
Assay type: cell-based
Design: test concentration 10 uM, cell line HepG2-A16-CD81EGFP
Details: human, HepG2-A16-CD81EGFP cells; read-out: INHIBITION
Quick note: give the figure in %, leave out the unit.

Q: Quick one: cytotoxicity at 10 µM of NC(=O)N1CC[C@H]2CO[C@H](CNC(=O)c3ccnnc3)[C@H]2C1 ?
Result: -4.7

Q: Sample O=C(Cn1cc(I)cn1)N1CCc2ccccc2C1 — what was its cytotoxicity at 10 µM?
Result: 11.2

Q: # input compound: CCc1nc(N2CCC3(CC2)OCCCC3O)ncc1C (configuration not stated) ; wanted: its cytotoxicity at 10 µM
Result: 7.41

Q: What value of measured cytotoxicity at 10 µM is listed for O=C(NCc1ccc(Br)c(F)c1)Nc1cn[nH]c1 ?
Result: -6.62

Q: Entry under review: O=C(c1cc[nH]n1)N(Cc1ccccc1)CC1CCC1 . Reported cytotoxicity at 10 µM?
Result: -6.74

Q: I am curious: what cytotoxicity at 10 µM value has been reported for CN(CC1CCC1)C(=O)c1ccc(-c2nc(C3CC3)n[nH]2)cc1 ?
Result: -3.26

Q: # query: cytotoxicity at 10 µM of entry CCC(O)c1nc2c([nH]1)CC(C)(C)CNC2=O (configuration not stated)
Result: 9.55

Q: What cytotoxicity at 10 µM value was documented for this compound, Cc1oncc1C(=O)N[C@@H]1CN(Cc2ccoc2)C[C@@H]2CCCO[C@@H]21 ?
Result: -108

Q: # get_value(readout='cytotoxicity at 10 µM', item= Cc1noc([C@@H]2C[C@@H]3CCN(CC4CC4)C[C@H]3O2)n1 )
Result: -139

Q: Which measured cytotoxicity at 10 µM value corresponds to COCCN1CCCC2(CCN(c3cccc(C(F)(F)F)n3)C2)C1=O (configuration not stated) ?
Result: 3.84

Q: cytotoxicity at 10 µM for Cc1c(NC(=O)N(C)CCCc2cnn(C)c2)cnn1C ?
Result: -1.23

Q: Record request: cytotoxicity at 10 µM value, item COCC(NC(=O)NCc1cccc(C#N)c1)c1ccco1 (configuration not stated)
Result: 2.7

Q: Would you kindly share the measured cytotoxicity at 10 µM for CNC(=O)CC1c2cccnc2C(=O)N1Cc1ccccc1 (configuration not stated) ?
Result: -2.51

Q: Any idea what its cytotoxicity at 10 µM is? The compound is CC(C)Cc1noc(CNc2cccc(-c3nnnn3C)c2)n1
Result: 4.6

Q: Quick one: cytotoxicity at 10 µM of CCOc1ncccc1Cn1cc2[nH]cccc-2c1=O ?
Result: 1.93

Q: Reported cytotoxicity at 10 µM, compound Cc1ccc(N2CCCN(C(=O)C(C(C)C)n3cncn3)CC2)nn1 (configuration not stated) : ____
Result: -5.99

Q: Look up cytotoxicity at 10 µM for this compound: CCc1ncc2c(n1)CN(C(=O)c1c(C)[nH]c3c1C(=O)CCC3)C2
Result: -45.8

Q: What measured cytotoxicity at 10 µM goes with Cc1n[nH]c(C2CN(C(=O)c3ccco3)CCO2)n1 (configuration not stated) ?
Result: -14.5

Q: Any idea what cytotoxicity at 10 µM was measured for COCCn1cc(CC(=O)Nc2c(C)nn(C)c2C)c2ccccc21 ?
Result: 1.18

Q: Name the reported cytotoxicity at 10 µM value associated with the compound COC(=O)c1cccc(S(=O)(=O)NC(=O)c2ccccc2F)c1
Result: 5.79

Q: // query cytotoxicity at 10 µM value for entry COc1ccc(Br)c(C(=O)NCC2CCN(C(=O)c3ccoc3)CC2)c1
Result: -21.7

Q: Field request: cytotoxicity at 10 µM | item: Cc1ccc(CNC2(Cc3cc(-c4cccc(O)c4)on3)COC2)o1
Result: -0.873

Q: // lookup cytotoxicity at 10 µM for CCc1nc(C)c([C@H]2CN(C)C[C@@H]2C(=O)Nc2cccc3cn[nH]c23)[nH]1
Result: -3.44

Q: Need cytotoxicity at 10 µM of NC(c1ccc(F)cc1)c1cccs1 (configuration not stated) , thanks.
Result: 15.6

Q: For the compound shown here, CCN(CC1CN(Cc2ccccn2)CCO1)c1cccnn1 (configuration not stated) , give the reported cytotoxicity at 10 µM.
Result: -6.95

Q: May I ask what cytotoxicity at 10 µM has been recorded for CNC(=O)C1CCN(c2nc3nc[nH]c(=O)c3s2)CC1 ?
Result: -13.5

Q: May I ask what cytotoxicity at 10 µM has been recorded for COc1ccc(OCCNCc2c(C)nn(C)c2N(C)C)cc1 ?
Result: -6.63
